- TESTED ON: Aldehyde dehydrogenase 1A1 (Homo sapiens) (UniProt P00352)
- Sequence (P00352 whole entry, looked up): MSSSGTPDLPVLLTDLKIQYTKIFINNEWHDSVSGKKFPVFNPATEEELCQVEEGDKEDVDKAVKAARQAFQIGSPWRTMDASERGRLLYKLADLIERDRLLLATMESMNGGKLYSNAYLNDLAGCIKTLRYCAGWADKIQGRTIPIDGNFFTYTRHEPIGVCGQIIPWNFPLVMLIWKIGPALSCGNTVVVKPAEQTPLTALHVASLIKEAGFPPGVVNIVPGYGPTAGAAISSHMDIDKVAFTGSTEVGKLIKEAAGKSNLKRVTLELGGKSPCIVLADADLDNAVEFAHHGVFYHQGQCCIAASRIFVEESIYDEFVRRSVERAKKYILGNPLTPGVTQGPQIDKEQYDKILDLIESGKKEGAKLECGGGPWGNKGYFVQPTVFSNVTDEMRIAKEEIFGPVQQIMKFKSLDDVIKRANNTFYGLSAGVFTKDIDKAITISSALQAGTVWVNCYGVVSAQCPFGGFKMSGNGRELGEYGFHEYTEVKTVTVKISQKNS
- PROTOCOL NOTES: qHTS Assay for Inhibitors of Aldehyde Dehydrogenase 1 (ALDH1A1)
- CONDITION SUMMARY: Purified ALDH1A1, NADH fluorescence, propionaldehyde substrate; series mostly up to 75.3 µM
The whole screen tested about 220,000 compounds, of which about 16,000 (7.3%) were called active. Not shown: some 25% with an inconclusive outcome. Calls come from the whole dose curve; as a rule, active = well fitted inhibition curve with a large enough effect (not every such curve was filed as active); inconclusive = small, poorly fitted or top-dose-only effect, or another doubt; inactive = no such curve, though single readings can be large or run the other way. The entries come from a sample that favours actives as a whole.
Outcomes you can answer with include only these: active, inactive

Would you please look over these solved cases?
                                   compound  label_class
0  N#Cc1ccc(CSc2nnc(-c3ccccn3)n2-c2ccc(Cl)cc2)cc1     inactive
1                   Cc1csc(/N=C/N(C)C)c1C#N     inactive
2  CCCCC(NC(=O)c1cccc(Br)c1)C(=O)O (centres undefined)     inactive
3  COc1cc(SC#N)ccc1N=Cc1c(C)[nH]n(-c2ccc(C)cc2)c1=O       active

Recorded test outcome, item COc1ccccc1-c1noc(CSc2nc(C)cc(=O)[nH]2)n1
inactive

What outcome does the record of this test show for O=C(/C=C/NNC(=O)c1cccc(Br)c1)c1ccccc1 ?
active

* * *

- TESTED ON: Aldehyde dehydrogenase 1A1 (Homo sapiens)
- PROTOCOL NOTES: qHTS Assay for Inhibitors of Aldehyde Dehydrogenase 1 (ALDH1A1)
- CONDITION SUMMARY: Purified ALDH1A1, NADH fluorescence, propionaldehyde substrate; series mostly up to 75.3 µM
Among all 220,000 compounds or so, about 16,000 (7.3%) were called active. About 25% were inconclusive and are not listed. Calls come from the whole dose curve; as a rule, active = well fitted inhibition curve with a large enough effect (not every such curve was filed as active); inconclusive = small, poorly fitted or top-dose-only effect, or another doubt; inactive = no such curve, though single readings can be large or run the other way. The entries come from a sample that favours actives as a whole.
# valid calls are 1 for active, -1 for inactive; nothing else

>>> df
                                   compound  label_class
0  Cc1[nH][nH]c(=O)c1C(c1ccc2c(c1)OCO2)c1c(C)[nH][nH]c1=O           -1
1  O=C(Nc1cccc2ncccc12)c1ccc(-c2ccc(Cl)cc2Cl)o1           -1
2             Cc1[nH][nH]c(=O)c1N=Nc1ccccc1           -1
3         Cc1ccc(NNC(=O)c2c(F)cccc2Cl)cc1Cl           -1
4          CCc1nc2sc(C(=O)O)c(N)c2c2c1CCCC2           -1

Here is another compound to look at.
Which outcome was assigned to Cc1ccc(C)c(-n2cc(CN3CCN(C(=O)c4ncn[nH]4)CC3)c(-c3ccccc3)n2)c1 in this test?
-1

* * *

- TESTED ON: Aldehyde dehydrogenase 1A1 (Homo sapiens) (UniProt P00352)
- PROTOCOL NOTES: qHTS Assay for Inhibitors of Aldehyde Dehydrogenase 1 (ALDH1A1)
- CONDITION SUMMARY: Purified ALDH1A1, NADH fluorescence, propionaldehyde substrate; series mostly up to 75.3 µM
Hit rate of the full screen: of about 220,000 compounds, about 16,000 (7.3%) were called active. Roughly 25% stayed inconclusive and do not appear here. Calls come from the whole dose curve; as a rule, active = well fitted inhibition curve with a large enough effect (not every such curve was filed as active); inconclusive = small, poorly fitted or top-dose-only effect, or another doubt; inactive = no such curve, though single readings can be large or run the other way. For the sample, actives were picked, then their nearest neighbours and some compounds at random.
Could you please pick one outcome from this set? Yes = active, No = inactive

Sample answers from the record:
>>> df
                                        smi  label_class
0  Cc1cc(C)cc(OCC(=O)NCc2cc(C)nc3ccccc23)c1           No
1  CN(C)c1nc(N)nc(Cn2nnc(-c3ccc(C(F)(F)F)cc3)n2)n1           No
2  COc1ccc(-n2nnnc2SCc2nc(N)nc(N3CCOCC3)n2)cc1           No
3       O=C(CN1C(=O)NC2(CCCCCC2)C1=O)NC1CC1           No
4  O=C(c1ccc(F)cc1)c1cn(Cc2ccc(F)cc2)c2cc3c(cc2c1=O)OCCO3           No

// next entry
Look up the recorded call for O=C(NCCc1ccccn1)c1cccnc1Oc1ccc(Cl)cc1 in this test.
No
